The origin of these recorded values is patent USRE48267E1.

# tested.on: T1, NPR-B (natriuretic peptide receptor B), murine, expressed endogenously on NIH3T3 cells (murine, UniProt Q6VVW5 17-1047)
# T1 sequence (looked up): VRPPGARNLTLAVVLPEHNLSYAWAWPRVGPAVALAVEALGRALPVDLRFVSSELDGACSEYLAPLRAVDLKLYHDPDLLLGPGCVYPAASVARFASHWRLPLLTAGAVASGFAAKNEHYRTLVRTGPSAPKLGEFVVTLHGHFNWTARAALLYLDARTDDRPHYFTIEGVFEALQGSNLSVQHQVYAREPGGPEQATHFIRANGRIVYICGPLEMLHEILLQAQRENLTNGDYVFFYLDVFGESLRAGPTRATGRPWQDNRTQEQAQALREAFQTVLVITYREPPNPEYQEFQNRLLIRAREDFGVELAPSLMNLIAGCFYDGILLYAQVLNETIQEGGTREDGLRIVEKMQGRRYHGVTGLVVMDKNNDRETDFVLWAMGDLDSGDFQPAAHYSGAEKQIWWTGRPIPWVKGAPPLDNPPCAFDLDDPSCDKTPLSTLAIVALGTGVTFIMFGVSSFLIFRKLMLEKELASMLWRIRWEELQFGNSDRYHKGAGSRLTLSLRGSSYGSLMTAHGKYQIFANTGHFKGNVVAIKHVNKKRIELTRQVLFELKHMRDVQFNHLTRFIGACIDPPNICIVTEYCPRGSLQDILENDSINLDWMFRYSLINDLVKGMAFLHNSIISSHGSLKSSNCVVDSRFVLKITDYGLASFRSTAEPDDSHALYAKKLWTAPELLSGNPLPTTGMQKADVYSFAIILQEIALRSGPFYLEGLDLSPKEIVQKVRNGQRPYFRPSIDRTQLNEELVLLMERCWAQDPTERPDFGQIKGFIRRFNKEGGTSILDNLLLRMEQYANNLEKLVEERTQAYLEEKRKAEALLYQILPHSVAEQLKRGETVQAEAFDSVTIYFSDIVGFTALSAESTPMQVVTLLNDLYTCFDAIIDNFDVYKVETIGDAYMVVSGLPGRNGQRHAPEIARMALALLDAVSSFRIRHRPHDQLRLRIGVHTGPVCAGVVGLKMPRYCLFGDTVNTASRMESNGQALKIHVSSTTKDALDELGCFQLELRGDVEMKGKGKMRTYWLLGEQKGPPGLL
# experiment.summary: cell-based or functional assay
Where no end group is shown, it is not given here.
quantity.kind: cGMP response rel. to 1 uM CNP22; 1 uM peptide, NIH3T3 cells

Ask: Name the recorded cGMP response rel. to 1 uM CNP22; 1 uM peptide, NIH3T3 cells for GANRRGLSRGCFGLKLDRIGSMSGLGC [GANRR-CNP22, K4R] .
Result: 105 rel. to 1 uM CNP22 (100)

Ask: Endpoint output: cGMP response rel. to 1 uM CNP22; 1 uM peptide, NIH3T3 cells of DLRVDTKSRAAWARGLSKGCFGLKLDRIGSMSGLGC [DLRVDTKSRAAWAR-CNP22] . Value?
Result: 101 rel. to 1 uM CNP22 (100)

Ask: GET /values?readout=cGMP response rel. to 1 uM CNP22; 1 uM peptide, NIH3T3 cells&item= GLSRGCFGLRLDRIGSMSGLGC (ends and bridges not checked; also: dimer joined N-terminus to N-terminus by disuccinimidyl glutarate) [CNP22, K4R, K10R, N-term.--N-term. dimer/disuccinimidyl glutarate]
Result: 44 rel. to 1 uM CNP22 (100)
